Hi there, I'd appreciate the recorded cell viability for every entry that follows.
system: P12-Ichikawa; assay: cell viability relative to DMSO control; higher = less cytotoxic; settings: RPMI 5 mM glucose + 10% FBS; 48 h; 0.00702 µM

* CN1C(=O)\C(=C/C2=C1N=C(NC3CCOCC3)N=C2)OC4=C(F)C=C(F)C=C4 | 93.5%
* Cc1ccnc(N[S+](=O)([O-])c2ccc(NC(=O)Nc3ccc([S+](=O)([O-])Nc4nccc(C)n4)cc3)cc2)n1 | 94.6%
* O=C(c1ccc(C(=O)N2CCC(N3CCCC3)CC2)c(Nc2ccccc2)c1)N1CCC(N2CCCC2)CC1 | 93.7%
* CO[C@H]1C[C@H]2OC[C@@]2(OC(C)=O)[C@H]3[C@H](OC(=O)C4=CC=CC=C4)[C@]5(O)C[C@H](OC(=O)[C@H](O)[C@@H](NC(=O)OC(C)(C)C)C6=CC=CC=C6)/C(=C(/[C@@H](OC)C(=O)[C@]13C)C5(C)C)C | 70.8%
* CNC(=O)c1cc(Oc2ccc(NC(=O)Nc3ccc(Cl)c(C(F)(F)F)c3)c(F)c2)ccn1 | 87.8%
* N[S+](=O)([O-])c1cc2c(cc1Cl)NCN[S+]2(=O)[O-] | 110%
* CN(C)c1ccccc1CN1CCCN(Cc2ccccc2N(C)C)C1c1ccncc1 | 94%
* Cc1cc(-c2ccc(CC(=O)Nc3ccc(-c4cccnc4)cc3)cc2)ccn1 | 121%

Look up cell viability for the entries below, preserving their order.
1. C[C@@H](Oc1ccc2[nH]nc(/C=C/c3cnn(CCO)c3)c2c1)c1c(Cl)cncc1Cl
2. CN(C)[C@H]\1[C@@H]2[C@@H](O)[C@H]3\C(=C(O)/[C@]2(O)C(=O)\C(=C1O)C(N)=O)C(=O)C4=C(C=CC=C4O)[C@@]3(C)O

Marked response:
1: 89.4%; 2: 125%

Look up cell viability for the entries below, preserving their order.
1. O=C(N[C@H]1CN2CCC1CC2)c1ccc(Cl)cc1
2. Cc1ccc(Nc2nccc(N(C)c3ccc4c(C)n(C)nc4c3)n2)cc1[S+](N)(=O)[O-]
3. O=C1N\N=C(\C[C@@H]2CCN(C2)C(=O)C3CC3)N1C4=CC=C(C=C4)C5=CC=C6OC=CC6=C5
4. CCOC(=O)c1c(/C(C#N)=C\N)c2ccc(Cl)c(Cl)c2n1C

Marked response:
114%
109%
77.1%
85.5%

----------
test system: NOMO1; test: cell viability relative to DMSO control; higher = less cytotoxic; settings: RPMI 5 mM glucose + 10% FBS; 48 h; 46.1 µM
# label 1 = cell viability below 80% (exclusive); label 0 = cell viability at/above 80%

• Cc1nc(C(=O)NCC(=O)O)c(O)c2ccc(Oc3ccccc3)cc12 = label 0
• COc1cc([C@@H]2c3cc4c(cc3[C@@H](O[C@@H]3O[C@@H]5CO[C@@H](C)O[C@H]5[C@H](O)[C@H]3O)[C@H]3COC(=O)[C@H]23)OCO4)cc(OC)c1O = label 1

Exam item: API: query returns whether the molecule falls strictly under 80% in cell viability. Query: Cc1ccc([S+](=O)([O-])NC(=O)NN2CC3CCCC3C2)cc1 (centres undefined)
Marked response: label 1

Exam item: API: query returns whether the molecule falls strictly under 80% in cell viability. Query: N[C@@H](Cc1ccc(N(CCCl)CCCl)cc1)C(=O)O
Marked response: label 1

Exam item: API: query returns whether the molecule falls strictly under 80% in cell viability. Query: Clc1ccc(C(Cn2ccnc2)OCc2ccc(Sc3ccccc3)cc2)c(Cl)c1 (centres undefined)
Marked response: label 1
